The reported numbers originate from the RNAGym collection of RNA variant scans (doi:10.7554/elife.80360).

B1: HDV Ribozyme (parent)
chain: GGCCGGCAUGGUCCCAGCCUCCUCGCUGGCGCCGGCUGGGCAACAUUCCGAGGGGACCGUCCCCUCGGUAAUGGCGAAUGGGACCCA

# Variants of: B1
# protocolSummary: self-cleavage, relative activity (ratio to wild type); higher = more cleavage; co-transcriptional
// label = satisfied if self-cleavage is not less than 0.7, otherwise not satisfied

self-cleavage >= 0.7 for GGCCGGCAUGGUCCCAGCCUCUUCGCUGGCCCCGGCUGGGCAACAUUCCGAGGGGACCGUCCCCUCGGUAAUGGCGAAUGGGACCCA [C22U G31C] ?
not satisfied

More entries:
self-cleavage >= 0.7 for GGCCGGCAUGGUCCCAGGCUCCUCGCUGGCGCCGGCUGGGCAACAUUCCGAGGGUACCGUCCCCUCGGUAAUGGCGAAUGGGACCCA [C18G G55U] ?
not satisfied
